# Assay Details: LTEA_HepaRG_LDH_cytotoxicity: Cytotoxicity Assessment in the Life Technologies and Expression Analysis (LTEA) Assay (AID 2283563)
Calls of active or inactive are those of the source. The calls were made as follows: active = hit-call score of the fitted dose curve at least 0.9, where 1 is the maximum; inconclusive = response in the unintended direction; inactive = score below 0.9.
Outcomes you can answer with include only these: class 1 = active, class 0 = inactive

These solved cases illustrate the format of a correct answer.
Smiles Str: CCCCCCCCCCC
Class: class 0
//
Smiles Str: NCCO
Class: class 0
//
Smiles Str: Nc1ccccc1N
Class: class 1
//
Smiles Str: CCCCCCCCCCCCCO
Class: class 0
//
Smiles Str: NC(=O)Cn1c(=O)cc(CCN2CCN(c3nccc4sccc34)CC2)c2ccc(F)cc21
Class: class 0

In the following, a different molecule is considered.
Exercise: Which outcome did this test record for the molecule `C1CCC(SSC2CCCCC2)CC1` ?
Solution: class 0

====

# Read-out: Human Leukocyte Antigen - DR isotype (HLADR), HLA-DRA (gene 3122)
# Assay Details: BSK_BE3C_HLADR: BioMAP Diversity Plus: BE3C Assay for Human Leukocyte Antigen - DR isotype (HLADR) Biomarker Activity (AID 2283032)
# Cond: primary human bronchial epithelial cells; actives raise or lower the signal
Activity calls are given as the source filed them. The calls were made as follows: active = hit-call score of the fitted dose curve at least 0.9, where 1 is the maximum; inactive = score below 0.9.
Outcomes you can answer with include only these: active, inactive

These solved cases illustrate the format of a correct answer.
Compound: CC(=O)Oc1ccccc1C(=O)O
Class: inactive

Compound: FC(F)(F)C(F)(F)C(F)(F)C(F)(F)C(F)(F)C(F)(F)CCI
Class: inactive

Compound: COCCOC[C@H](CC1(C(=O)NC2CCC(C(=O)O)CC2)CCCC1)C(=O)Oc1ccc2c(c1)CCC2 (some centres undefined)
Class: inactive

Compound: CCCCCCCCCCCCCCCC
Class: inactive

Compound: CN[C@H]1CC[C@@H](c2ccc(Cl)c(Cl)c2)c2ccc(S(N)(=O)=O)cc21
Class: active

Exercise: Which outcome did this test record for the compound `COc1cc(S(=O)(=O)O)c(C)cc1N=Nc1c(O)ccc2cc(S(=O)(=O)O)ccc12` ?
Solution: inactive

Exercise: Try the compound `COc1cc(-c2nc(NC(=O)c3cc4cc(C)cc(C)c4n3CC(=O)O)sc2CCC2CCCCC2)c(OC)cc1Cl`
Solution: active

Exercise: Try the compound `CC=Cc1ccc(O)c(OC)c1`
Solution: inactive

Exercise: Try the compound `C[C@]12C=CC(=O)C=C1CC[C@@H]1[C@@H]2C(=O)C[C@@]2(C)[C@H]1CC[C@]2(O)C(=O)CO`
Solution: inactive

====

# Assay Details: BSK_3C_SRB: Viability Assessment in the BioMAP Diversity Plus: 3C Assay (AID 2283023);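 also: cells read 24 h after compound dosing; fitted both ways against DMSO so a hit may be signal rise or drop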
# Cond: primary human endothelial cells (HUVEC)
Calls of active or inactive are those of the source. The calls were made as follows: active = hit-call score of the fitted dose curve at least 0.9, where 1 is the maximum; inactive = score below 0.9.
Outcomes you can answer with include only these: y (active), n (inactive)

These solved cases illustrate the format of a correct answer.
Smiles Str: COC(=O)c1ccc(O)cc1
Class: n
--
Smiles Str: CCOC(=O)C(C)(C)Oc1ccc(Cl)cc1
Class: n
--
Smiles Str: Cc1oc(-c2ccccc2)nc1CCOc1cccc2c1ccn2CCC(=O)O
Class: n

In the following, a different molecule is considered.
Exercise: Which outcome did this test record for the molecule `O=c1[nH]cc(F)c(=O)[nH]1` ?
Solution: y

====

# Assay Details: APR_HepG2_MitoMass_72hr: Apredica 72-hour HepG2 Assay for Mitochondrial Mass (AID 2282924);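 also: MitoTracker Red CMXRos stain intensity per cell imaged as mitochondrial mass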
# Cond: high-content imaging, actives raise or lower the signal
Active and inactive are the calls of the source. Rule for the calls: active = hit-call score of the fitted dose curve at least 0.9, where 1 is the maximum; inactive = score below 0.9.
Outcomes you can answer with include only these: label 1 for active, label 0 for inactive

These solved cases illustrate the format of a correct answer.
Compound: CCCCCCCCCCO
Class: label 0
//
Compound: COc1cc(-c2nc(NC(=O)c3cc4cc(C)cc(C)c4n3CC(=O)O)sc2CCC2CCCCC2)c(OC)cc1Cl
Class: label 1
//
Compound: C=CCc1ccc(O)c(OC)c1
Class: label 0

Exercise: Which outcome did this test record for the compound COCCOC[C@H](CC1(C(=O)NC2CCC(C(=O)O)CC2)CCCC1)C(=O)Oc1ccc2c(c1)CCC2 (stereo not given in full) ?
Solution: label 0

Exercise: Try the compound `O=[N+]([O-])C(CO)(CO)CO`
Solution: label 0

Exercise: Try the compound `FC(F)(F)C(F)(F)C(F)(F)C(F)(F)C(F)(F)C(F)(F)CCI`
Solution: label 0

Exercise: Try the compound `OC[C@@H](O)[C@@H](O)[C@H](O)[C@H](O)CO`
Solution: label 0

Exercise: Try the compound `COc1cc(C=O)ccc1O`
Solution: label 0

Exercise: Try the compound `CCOC(=O)C(C)(C)Oc1ccc(Cl)cc1`
Solution: label 0

Exercise: Try the compound `CCCc1cc(=O)[nH]c(=S)[nH]1`
Solution: label 0

Exercise: Try the compound `CCCCCCCCCCCCCO`
Solution: label 0

====

# Read-out: Interleukin-1 alpha (IL1a), IL1A (gene 3552)
# Assay Details: BSK_BE3C_IL1a: BioMAP Diversity Plus: BE3C Assay for Interleukin-1 alpha (IL1a) Biomarker Activity (AID 2283016)
# Cond: primary human bronchial epithelial cells; actives raise or lower the signal
Activity calls are given as the source filed them. The calls were made as follows: active = hit-call score of the fitted dose curve at least 0.9, where 1 is the maximum; inactive = score below 0.9.
Outcomes you can answer with include only these: Yes = active, No = inactive

Compound: Oc1ccc2ccccc2c1N=Nc1ccccc1
Class: No

Compound: COc1ccc(S(=O)(=O)N2C(=O)[C@@](c3ccccc3OC)(N3C[C@H](O)C[C@H]3C(=O)N(C)C)c3cc(Cl)ccc32)c(OC)c1
Class: No

Compound: CCCCCCOCCO
Class: No

Compound: CCCCc1ccc2c(n1)[C@@H](c1ccc(OC)cc1C[C@H](C)C(=O)O)[C@H](C(=O)O)[C@H]2c1ccc2c(c1)OCO2
Class: No

Compound: CC(CO)OC(C)CO (stereo unspecified) (tested in a mixture with another compound)
Class: No

Compound: Oc1ccc2c(c1)OC[C@@H](N1CCC(O)(c3ccc(F)cc3)CC1)[C@H]2O
Class: No

Exercise: Which outcome did this test record for the compound `O=c1[nH]cc(F)c(=O)[nH]1` ?
Solution: No

Exercise: Try the compound `NC(=O)Cn1c(=O)cc(CCN2CCN(c3nccc4sccc34)CC2)c2ccc(F)cc21`
Solution: No

Exercise: Try the compound `CC(=O)Oc1ccccc1C(=O)O`
Solution: No

====

# Read-out: Collagen III, COL3A1 (gene 1281)
# Assay Details: BSK_hDFCGF_CollagenIII: BioMAP Diversity Plus: hDFCGF Assay for Collagen III Biomarker Activity (AID 2283056)
# Cond: primary human foreskin fibroblasts; actives raise or lower the signal
Active and inactive are the calls of the source. The calls were made as follows: active = hit-call score of the fitted dose curve at least 0.9, where 1 is the maximum; inactive = score below 0.9.
Outcomes you can answer with include only these: active, inactive

Compound: CC(CO)OC(C)CO (centres undefined) (tested in a mixture with another compound)
Class: inactive

Compound: CCOC(=O)C(C)(C)Oc1ccc(Cl)cc1
Class: inactive

Compound: CCCCCCCCCCCCCO
Class: active

Compound: CNCc1cc(F)ccc1Oc1ccc(Cl)c(Cl)c1
Class: inactive

Compound: Cc1ccc(Cl)cc1
Class: inactive

Exercise: Which outcome did this test record for the compound `O=C(N[C@@H](Cc1ccccc1)[C@@H](O)C(=O)N1C[C@@H](O)[C@@H](O)C1)c1cc2cc(Cl)ccc2[nH]1` ?
Solution: inactive

Exercise: Try the compound `CCCCCCOCCO`
Solution: inactive

Exercise: Try the compound `Cc1cccc(C)c1O`
Solution: inactive

====

# Read-out: Forkhead box O3 (FOXO3), FOXO3 (gene 2309)
# Assay Details: LTEA_HepaRG_FOXO3: Life Technologies and Expression Analysis (LTEA) Assay for Forkhead box O3 (FOXO3) using HepaRG (AID 2283459)
# Cond: mRNA level, 48 h; actives raise or lower the signal
Activity calls are given as the source filed them. How the source made its calls: active means hit-call score of the fitted dose curve at least 0.9, where 1 is the maximum; inactive means score below 0.9.
Outcomes you can answer with include only these: label 1 = active, label 0 = inactive

Exercise: Which outcome did this test record for the compound `Nc1ccc(S(=O)(=O)c2ccc(N)cc2)cc1` ?
Solution: label 0

====

# Assay Details: ATG_AP_1_CIS: Attagene CIS-FACTORIAL HepG2 Assay for human Activator Protein 1 (AP-1) (AID 2282931)
# Cond: HepG2 Attagene cis-factorial AP-1 reporter mRNA; actives raise or lower the signal
Activity calls are given as the source filed them. The calls were made as follows: active = hit-call score of the fitted dose curve at least 0.9, where 1 is the maximum; inactive = score below 0.9.
Outcomes you can answer with include only these: class 1 = active, class 0 = inactive

Smiles Str: Cc1cccc([N+](=O)[O-])c1C
Class: class 0
--
Smiles Str: Cc1ccccc1Cl
Class: class 0
--
Smiles Str: C1CCC(SSC2CCCCC2)CC1
Class: class 1
--
Smiles Str: O=C(OCCCCCOC(=O)c1ccccc1)c1ccccc1
Class: class 0
--
Smiles Str: Nc1ccc(S(=O)(=O)c2ccc(N)cc2)cc1
Class: class 0

Exercise: Which outcome did this test record for the compound `FC(F)(F)C(F)(F)C(F)(F)C(F)(F)C(F)(F)C(F)(F)CCI` ?
Solution: class 0

Exercise: Try the compound `COc1cc(-c2nc(NC(=O)c3cc4cc(C)cc(C)c4n3CC(=O)O)sc2CCC2CCCCC2)c(OC)cc1Cl`
Solution: class 1

Exercise: Try the compound `O=c1c(O)c(-c2ccc(O)c(O)c2)oc2cc(O)cc(O)c12`
Solution: class 1
